Source listed as PubChem BioAssay.

assay: luciferase luminescence interference by compounds, confirmation, artefact control for SENP inhibitor project, biochemical, single concentration, SENP8 reaction pre-completed (AID 488919); details: Pre-incubated SENP8/Z-RLRGG-aminoluciferin, at 12.5 µM, hits give high values
Some of the results follow.
Classification field: enter T for inhibition values not below 40%, F for values below it.

Before answering, review these 3 worked examples.
[[record]]
compound = "Cc1ccc2nc(-c3ccc(Br)cc3)cn2c1"
classification = "F"

[[record]]
compound = "O=C(Nc1nnc(C2CC2)s1)c1ccccn1"
classification = "T"

[[record]]
compound = "CC(C)(C)c1ccc(NC(=O)NCc2ccco2)cc1"
classification = "F"


Given the entry "CCOC(=O)c1sc(NC(=O)c2ccncc2)nc1C" , answer whether its inhibition meets or surpasses 40%.
F

Reported inhibition at or above 40%? COc1cccc(OCC(O)CNC(=O)c2oc3c(C)c(C)ccc3c2C)c1 (stereo unspecified)
F

Record "O=c1[nH]c(CCl)nc2cc(-c3ccc(Cl)cc3)sc12" ; criterion: inhibition no lower than 40%. Met?
F
